target: T1, human CD137-Fc fusion protein (Fc-fusion of the full extracellular domain of human CD137, R&D Systems 838-4B) (human, UniProt Q07011 24-186); experiment: SPR (Biacore T200, 37 C), huCD137-Fc captured via anti-human IgG-Fc antibody, mutein as analyte, 1:1 model
T1 construct: extracellular domain; Bought protein; also called huCD137-Fc; KD huCD137; not shown: Fc of human IgG (captured by an anti-human IgG-Fc antibody)
recordedMetric: Kd
Value and unit, in that order.

Quick note, Kd for lipocalin mutein of SEQ ID NO: 15 (designed binder, not shown: small tags and cut ends, expressed in E. coli with a C-terminal Strep-tag II; also called hNGAL mutein) QDSTSDLIPAPPLSKVPLQQNFQDNQFHGKWYVVGQAGNIKLREDKDPNKMMATIYELKEDKSYDVTAVAFDDKKCTYDIWTFVPGSQPGEFTLGKIKSFPGHTSSLVRVVSTNYNQHAMVFFKFVFQNREEFYITLYGRTKELTSELKENFIRFSKSLGLPENHIVFPVPIDQCIDG landed at 23 nM

Quick note, Kd for lipocalin mutein of SEQ ID NO: 16 (designed binder, not shown: small tags and cut ends, expressed in E. coli with a C-terminal Strep-tag II; also called hNGAL mutein) QDSTSDLIPAPPLSKVPLQQNFQDNQFHGKWYVVGQAGNIKLREDSKMMATIYELKEDKSYDVTGVSFDDKKCTYAIMTFVPGSQPGEFTLGKIKSFPGHTSSLVRVVSTNYNQHAMVFFKFVFQNREEFYITLYGRTKELTSELKENFIRFSKSLGLPENHIVFPVPIDQCIDG landed at 30 nM

Quick note, Kd for lipocalin mutein of SEQ ID NO: 17 (designed binder, not shown: small tags and cut ends, expressed in E. coli with a C-terminal Strep-tag II; also called hNGAL mutein) QDSTSDLIPAPPLSKVPLQQNFQDNQFHGKWYVVGQAGNIKLREDKDPVKMMATIYELKEDKSYDVTGVTFDDKKCRYDISTFVPGSQPGEFTFGKIKSFPGHTSSLVRVVSTNYNQHAMVFFKFVFQNREEFYITLYGRTKELTSELKENFIRFSKSLGLPENHIVFPVPIDQCIDG landed at 50 nM

Quick note, Kd for lipocalin mutein of SEQ ID NO: 13 (designed binder, not shown: small tags and cut ends, expressed in E. coli with a C-terminal Strep-tag II; also called hNGAL mutein) QDSTSDLIPAPPLSKVPLQQNFQDNQFHGKWYVVGQAGNIRLREDKDPIKMMATIYELKEDKSYDVTMVKFDDKKCMYDIWTFVPGSQPGEFTLGKIKSFPGHTSSLVRVVSTNYNQHAMVFFKFVFQNREEFYITLYGRTKELTSELKENFIRFSKSLGLPENHIVFPVPIDQCIDG landed at 2 nM

Quick note, Kd for lipocalin mutein of SEQ ID NO: 20 (designed binder, not shown: small tags and cut ends, expressed in E. coli with a C-terminal Strep-tag II; also called hNGAL mutein) QDSTSDLIPAPPLSKVPLQQNFQDNQFHGKWYVVGQAGNIRLREDKDPSKMMATIYELKEDKSYDVTAVTFDDKKCNYAISTFVPGSQPGEFTLGKIKSFPGHTSSLVRVVSTNYNQHAMVFFKFVFQNREEFYITLYGRTKELTSELKENFIRFSKSLGLPENHIVFPVPIDQCIDG landed at 138 nM

Quick note, Kd for lipocalin mutein of SEQ ID NO: 14 (designed binder, not shown: small tags and cut ends, expressed in E. coli with a C-terminal Strep-tag II; also called hNGAL mutein) QDSTSDLIPAPPLSKVPLQQNFQDNQFHGKWYVVGQAGNIRLREDKDPNKMMATIYELKEDKSYDVTAVAFDDKKCTYDIWTFVPGSQPGEFTLGKIKSFPGHTSSLVRVVSTNYNQHAMVFFKFVFQNREEFYITLYGRTKELTSELKENFIRFSKSLGLPENHIVFPVPIDQCIDG landed at 9 nM

Quick note, Kd for lipocalin mutein of SEQ ID NO: 19 (designed binder, not shown: small tags and cut ends, expressed in E. coli with a C-terminal Strep-tag II; also called hNGAL mutein) QDSTSDLIPAPPLSKVPLQQNFQDNQFHGKWYVVGQAGNIKLREDKDPNKMMATIYELKEDKSYDVTGVTFDDKKCTYAISTLVPGSQPGEFTFGKIKSFPGHTSSLVRVVSTNYNQHAMVFFKFVFQNREEFYITLYGRTKELTSELKENFIRFSKSLGLPENHIVFPVPIDQCIDG landed at 98 nM

Quick note, Kd for lipocalin mutein of SEQ ID NO: 18 (designed binder, not shown: small tags and cut ends, expressed in E. coli with a C-terminal Strep-tag II; also called hNGAL mutein) QDSTSDLIPAPPLSKVPLQQNFQDNQFHGKWYVVGQAGNIRLREDKDPHKMMATIYELKEDKSYDVTGVTFDDKKCTYAISTFVPGSQPGEFTLGKIKSFPGHTSSLVRVVSTNYNQHAMVFFKFVFQNREEFYITLYGRTKELTSELKENFIRFSKSLGLPENHIVFPVPIDQCIDG landed at 77 nM

Quick note, Kd for lipocalin mutein of SEQ ID NO: 12 (designed binder, not shown: small tags and cut ends, expressed in E. coli with a C-terminal Strep-tag II; also called hNGAL mutein) QDSTSDLIPAPPLSKVPLQQNFQDNQFHGKWYVVGQAGNIKLREDKDPNKMMATIYELKEDKSYNVTGVTFDDKKCTYAISTFVPGSQPGEFTLGKIKSFPGHTSSLVRVVSTNYNQHAMVFFKFVFQNREEFYITLYGRTKELTSELKENFIRFSKSLGLPENHIVFPVPIDQCIDG landed at 36 nM

FYI, the data here is from patent US20180148484A1.
